B1: 6NMW (parent)
chain: QGDIVVALYPYDGIHPDDLSFKKGEKMKVLEEHGEWWKAKSLLTKKEGFIPSNYVAKLN

variants of: B1; test: folding stability dG (cDNA display proteolysis); higher = more stable; settings: PBS, room temperature
readout name: folding stability dG
Remember to put the unit after the number in your answer.

Answered cases to consult:
Which folding stability dG is reported for this variant? V6C
3.01 kcal/mol

Field request: folding stability dG | item: A56R
4.18 kcal/mol

What value of folding stability dG has been reported for the following variant? D12P
3.14 kcal/mol

What measured folding stability dG goes with K46F ?
2.48 kcal/mol

Consider the variant shown here: K40E What is its recorded folding stability dG?
2.86 kcal/mol

Further cases:
Consider the variant V6M and give its measured folding stability dG.
2.59 kcal/mol

For the variant H15A , what folding stability dG is on record?
3.22 kcal/mol

Name the recorded folding stability dG for L19T .
0.168 kcal/mol

// folding stability dG lookup, key: P16R
2.87 kcal/mol

# get_value(readout='folding stability dG', item= S41M )
1.38 kcal/mol

Please give the measured folding stability dG for this variant: N53E
3.19 kcal/mol

Bench note: what folding stability dG did P16T show?
2.87 kcal/mol

Name the reported folding stability dG value associated with the variant K40C
3.71 kcal/mol

Which folding stability dG is listed for G48F ?
0.034 kcal/mol
